- System: NCI-H226 lung
- measurement-protocol: NCI tumour cell line growth inhibition, 48 h
Recorded TGI by entry
endpoint: TGI

> print(dat)
                                    compound  observed
 1  CC(C)(C)c1cc[n+](C[n+]2ccc(C(C)(C)C)cc2)cc1  > 100 µM
 2  COP(=O)(/C=C/C(NC(=O)C(Cl)(Cl)Cl)c1ccccc1)OC (stereo not drawn)  > 100 µM
 3  COc1ccc(OC)c(-c2cc(-c3ccc(Cl)cc3)nn2-c2ccccc2)c1  > 100 µM
 4  C=C[C@@H]1CCC/C=C/[C@@H]2C[C@H](O)C[C@H]2[C@H](O)/C=C/C(=O)O1  0.784 µM
 5  COC(=O)Cc1cccc2c(=O)c(S(=O)(=O)NC(=O)Nc3ccc(Cl)cc3)c(-c3ccccc3)oc12  > 100 µM
 6  C=C(C)[C@@H]1C/C=C(/COC(C)=O)CC[C@H]2O[C@@]2(C)CC/C=C(\C)CC1  > 100 µM
 7      Cc1ccc(F)c2[nH]c(-c3ccccc3)cc(=O)c12  > 100 µM
 8  CN1C(c2ccccc2)CC(=NO)CC1c1ccccc1 (stereo not drawn)  > 100 µM
 9  Cc1c(C)c(S(=O)(=O)N(CCCN)OCCCN)c(C)c2c1OC(C)(C)CC2     28 µM
10  CCOC(=O)NC(=O)c1cn(CCN(CCO)C(=O)NCCCCCCNC(=O)N(CCO)CCn2cc(C(=O)NC(=O)OCC)c(=O)[nH]c2=O)c(=O)[nH]c1=O  > 100 µM
11  O=C1C=CC(=O)c2c(O)c(NCCN3CCOCC3)c(Cl)c(O)c21   > 10 µM
12               N#CC1(C#N)C(=O)c2ccncc2C1=O  > 100 µM
13  O=C(N/N=C\c1ccc(N(CCCl)CCCl)cc1)c1cccnc1   11.4 µM
14  CCCCCCCC(=O)Nc1nc2[nH]c(CN3CCN(Cc4cccc(I)c4)CC3)c(CN3CCN(Cc4cccc(I)c4)CC3)c2c(=O)[nH]1   2.59 µM
15  C=CCC1(CN(C)C)CC/C(=C\c2cc(OC)c(OC)c(OC)c2)C1=O (stereo not drawn)  > 100 µM
16  CCOP(=O)(OCC)/C(=C\n1ccc(=O)[nH]c1=S)C(=O)OC  > 100 µM
17  CC1(C)CC[C@]2(C(=O)NCCNCCN)CC[C@]3(C)C(=CC[C@@H]4[C@@]5(C)CCC(=O)C(C)(C)[C@@H]5CC[C@]43C)[C@@H]2C1   36.1 µM
18   COc1ccc(/C=C/c2cc(OC)c(OC)c(OC)c2)cc1OC  > 100 µM
19      COc1ccc(/C(=N/OCCCC(=O)O)c2cccs2)cc1  > 100 µM
20  C[C@]12CC[C@@H]3c4ccc(O)cc4CC[C@H]3[C@@H]1CC(Cc1ccccc1)(Cc1ccccc1)C2=O   31.3 µM
21     COc1ccc2[nH]c3c(c2c1)CCc1c(OC)cccc1-3  > 100 µM
22  O=C([O-])c1ccccc1Nc1ccccc1C(=O)[O-].[OH3+].[Zn+2]     67 µM
23  OC(c1cc2ccccc2[nH]1)C(O)(c1cc2ccccc2[nH]1)c1cc2ccccc2[nH]1 (stereo not drawn)   40.4 µM

====

- Test system: NCI-H522 lung
- measurement-protocol: NCI tumour cell line growth inhibition, 48 h
Here the recorded TGI is given for each entry.
endpoint: TGI

> print(dat)
                                   molecule   assay.target  observed
1  COc1ccc(N[C@H](CS(=O)c2ccc(C)cc2)C(F)(F)F)cc1 (stereo partly drawn)  NCI-H522 lung  > 100 µM
2   COc1nc2c(c(=O)n1C)CN(c1ccccc1)C(=O)CN2C  NCI-H522 lung  > 100 µM
3  COc1cccc(C2SC(C)C(=O)N2NC(=O)C(O)c2ccccc2)c1 (stereo not drawn)  NCI-H522 lung  > 100 µM
4  CN(CCO)CCC1COc2ccccc2O1 (stereo not drawn)  NCI-H522 lung   > 10 µM
5                  Oc1ccc(Br)cc1C=NC1CCCCC1  NCI-H522 lung  > 100 µM
6  CCOC(=O)c1ccc(NCc2ccc3nc(OC)c(OC)nc3c2)cc1  NCI-H522 lung  > 100 µM
7  COC(=O)c1ccc(Oc2nc3ccc(C(F)(F)F)cc3nc2-c2ccccc2)cc1  NCI-H522 lung  > 100 µM
8  CC(C)(C)OC(=O)NC(Cc1ccccc1)C(=S)N1CCCC1 (stereo not drawn)  NCI-H522 lung   96.9 µM

====

- System: CAKI-1 renal
- measurement-protocol: NCI tumour cell line growth inhibition, 48 h
endpoint: TGI

> print(dat)
                                   compound  endpoint   observed
1                         Nc1nncc2n[nH]nc12       TGI   > 100 µM
2                  Oc1ccc(Br)cc1C=NC1CCCCC1       TGI   > 100 µM
3  C=C[C@@H]1CCC/C=C/[C@@H]2C[C@H](O)C[C@H]2[C@H](O)/C=C/C(=O)O1       TGI  > 50.3 µM
4  CN(CCO)CCC1COc2ccccc2O1 (stereo unspecified)       TGI    > 10 µM
5  CCCC(=O)Nc1cc(/C=C/C(=O)N2CC(CCl)c3ccc([N+](=O)[O-])cc32)n(C)c1 (stereo unspecified)       TGI   > 100 µM
6  Cc1ccc(NC(=O)C(=O)C2C(=O)NC(=O)NC2=O)c(C)c1       TGI   > 100 µM

====

- System: OVCAR-4 ovarian
- measurement-protocol: NCI tumour cell line growth inhibition, 48 h
Measured TGI values are reported for all entries that follow.
endpoint: TGI (µM)

> print(dat)
                                   compound  reading.unit  censoring.qualifier  observed
1  CC1=NC(C)=C(/C(C)=N/NC(=O)c2ccccc2O)C(C)/C1=C(/C)NNC(=O)c1ccccc1O (stereo not drawn)            µM                    =      48.4
2  OCC#Cc1ccccc1C#Cc1ccc(C#Cc2ccccc2C#CCO)cc1            µM                    >       100
3         CC1(C)C(CBr)=[N+]([O-])C(C)(C)N1O            µM                    =      4.23
4  CC[C@H](C)[C@H](NC(=O)c1ncccn1)C(=O)N(C)[C@H](C[C@@H](OC(C)=O)c1nc(C(=O)N[C@@H](Cc2ccccc2)C[C@H](C)C(=O)OC)cs1)C(C)C            µM                    >        25
5  Cn1c2ccccc2c2c3c(c4c5ccccc5n(C)c4c21)C(=O)N(Cc1ccccc1)C3=O            µM                    >       100
6  COc1nc2c(c(=O)[nH]1)N=C(c1ccccc1)CC(c1ccccc1)N2 (stereo not drawn)            µM                    =      81.4
7  Cc1ccc([N+](=O)[O-])cc1NC(=O)C(=O)Cc1nc2ccc(C(=O)c3ccccc3)cc2[nH]c1=O            µM                    >       100
8  Cc1cccc2c(=O)c3c(sc12)c(NCCCN)nc1ccccc13            µM                    =      3.25

====

Overview of reported TGI across a group of compounds:
- Test system: SK-MEL-2 melanoma
- measurement-protocol: NCI tumour cell line growth inhibition, 48 h
endpoint: TGI (µM)

> print(dat)
                                   compound  endpoint  reading.unit  censoring.qualifier  observed
1  O=C1CC=C2C3CC4N(CCC45c4ccccc4N1C25)C/C3=C\CO (stereo not given)       TGI            µM                    >       100
2    CCOC(=O)c1ccc(Nc2nc3ccccc3n3cccc23)cc1       TGI            µM                    >       100
3  C1=C2C3=[N+](CCCC3)CC2Cc2sccc21 (stereo not given)       TGI            µM                    >       100
4  C[C@]12CC[C@@H]3c4ccc(O)cc4CC[C@H]3[C@@H]1CC(Cc1ccccc1)(Cc1ccccc1)C2=O       TGI            µM                    =      53.6
5  CC1(C)N=C(N)N=C(N)N1c1cccc(CCCCc2ccc(Cl)c(S(=O)(=O)F)c2)c1       TGI            µM                    =      25.4
